Provide the recorded SChCl-G50%/ SChCl-G10% for the entries that follow.
experiment: Solubility measurement by shake flask method (UV spectrophotometry); settings: solubility ratio in DES50% to DES10%, ChCl-G

The cases that follow already have their SChCl-G50%/ SChCl-G10% on record.
CN1CC(=O)N2[C@H](c3ccc4c(c3)OCO4)c3[nH]c4ccccc4c3C[C@@H]2C1=O [Tadalafil, tadalafil]
5.25
c1ccc2c(c1)Nc1ccccc1S2 [Phenothiazine, phenothiazine]
18.06
O=C(O)c1ccccc1O [Salicylic acid, salicylic acid]
1.80
CC(C)NCC(O)COc1ccc(CC(N)=O)cc1 (centres unmarked) [Atenolol, atenolol]
1.03
CN1C(C(=O)Nc2ccccn2)=C(O)c2ccccc2S1(=O)=O [Piroxicam, piroxicam]
1.28
Nc1nnc(-c2cccc(Cl)c2Cl)c(N)n1 [Lamotrigine, lamotrigine]
4.52
O=C1NC(=O)C(c2ccccc2)(c2ccccc2)N1 [Phenytoin, phenytoin]
4.24
O=C(O)c1ccccc1 [Benzoic acid, benzoic acid]
1.76
NC(=O)N1c2ccccc2C=Cc2ccccc21 [Carbamazepine, carbamazepine]
8.54
CC(=O)N1CCN(c2ccc(OCC3COC(Cn4ccnc4)(c4ccc(Cl)cc4Cl)O3)cc2)CC1 (centres unmarked) [Ketoconazole, ketoconazole]
2.16

Proceeding to the next compound to report its SChCl-G50%/ SChCl-G10%.
Ask: Kindly indicate its recorded SChCl-G50%/ SChCl-G10%. Item: COc1ccccc1OCCNCC(O)COc1cccc2[nH]c3ccccc3c12 (centres unmarked) [Carvedilol, carvedilol]
Reply: 5.48

###

Please respond with reported solubility at 48 h for every item in the list.
assay: Solubility measurement by shake flask method (UV spectrophotometry); conditions: 37 °C, aqueous with cosolvent or surfactant or cyclodextrin, thermodynamic from solid, Solubility, Water + ChCl-G10%, 10:90% mass fraction choline chloride-glycerol (1:2) DES:water; 37 ± 1°C, 48 h
Answers are plain numbers, in µg/mL.

Examples from the recorded data:
c1ccc2c(c1)Nc1ccccc1S2
5
O=C(O)c1ccccc1O
7060
COc1ccccc1OCCNCC(O)COc1cccc2[nH]c3ccccc3c12 (stereo not drawn)
159

Look up solubility at 48 h for the entries below, preserving their order.
1. CN1CC(=O)N2[C@H](c3ccc4c(c3)OCO4)c3[nH]c4ccccc4c3C[C@@H]2C1=O
2. O=C1NC(=O)C(c2ccccc2)(c2ccccc2)N1
3. Nc1nnc(-c2cccc(Cl)c2Cl)c(N)n1
4. CN1C(C(=O)Nc2ccccn2)=C(O)c2ccccc2S1(=O)=O

Reply:
[17, 60, 506, 32]

I would be grateful if you could provide solubility at 48 h for each of the following entries.
1. CC(=O)N1CCN(c2ccc(OCC3COC(Cn4ccnc4)(c4ccc(Cl)cc4Cl)O3)cc2)CC1 (stereo not drawn)
2. CC(C)Cc1ccc(C(C)C(=O)O)cc1 (stereo not drawn)

Reply:
[35, 141]

###

experiment: Solubility measurement by shake flask method (UV spectrophotometry); conditions: 37 °C, aqueous with cosolvent or surfactant or cyclodextrin, thermodynamic from solid, Solubility, Water+ ChCl-G50%, 50:50% mass fraction choline chloride-glycerol (1:2) DES:water; 37 ± 1°C, 48 h
Please go through the items and note down their log10(solubility at 48 h).
Please note: log10 values; quantity solubility at 48 h; unit µg/mL.

Before answering, review these 8 worked examples.
CN1CC(=O)N2[C@H](c3ccc4c(c3)OCO4)c3[nH]c4ccccc4c3C[C@@H]2C1=O [Tadalafil, tadalafil]
1.96
COc1ccccc1OCCNCC(O)COc1cccc2[nH]c3ccccc3c12 (stereo not shown) [Carvedilol, carvedilol]
2.94
CC(=O)N1CCN(c2ccc(OCC3COC(Cn4ccnc4)(c4ccc(Cl)cc4Cl)O3)cc2)CC1 (stereo not shown) [Ketoconazole, ketoconazole]
1.89
CC(C)Cc1ccc(C(C)C(=O)O)cc1 (stereo not shown) [Ibuprofen]
2.38
CN1C(C(=O)Nc2ccccn2)=C(O)c2ccccc2S1(=O)=O [Piroxicam, piroxicam]
1.60
O=C1NC(=O)C(c2ccccc2)(c2ccccc2)N1 [Phenytoin, phenytoin]
2.41
c1ccc2c(c1)Nc1ccccc1S2 [Phenothiazine, phenothiazine]
2.00
O=C(O)c1ccccc1O [Salicylic acid, salicylic acid]
4.10

Required: log10(solubility at 48 h), one value per compound below.
1. NC(=O)N1c2ccccc2C=Cc2ccccc21 [Carbamazepine, carbamazepine]
2. Nc1nnc(-c2cccc(Cl)c2Cl)c(N)n1 [Lamotrigine, lamotrigine]

Reply:
[3.44, 3.36]
